Each entry below carries its reported biodistribution: stomach.
system: LNCaP tumor-bearing CB17-SCID mice; assay: Biodistribution studies 24 h p.i.; format: in vivo; conditions: 177Lu-labelled, mean±SD, n=4-5
Give your result in % ID/g as a bare value.

Consider the reported biodistribution: stomach for these compounds:
Compound	Observed Measurement
CC(C)(C)[Si](O)(c1ccc(C(=O)NC[C@@H](NC(=O)CC[C@@H](C(=O)O)N2CCN(CC(=O)O)CCN(CC(=O)O)CCN(CC(=O)O)CC2)C(=O)NCC(=O)N[C@@H](CCCCNC(=O)CCC(=O)NCCC[C@@H](NC(=O)CC[C@H](NC(=O)N[C@@H](CCC(=O)O)C(=O)O)C(=O)O)C(=O)O)C(=O)O)cc1)C(C)(C)C	0.08
CC(C)(C)[Si](F)(c1ccc(C(=O)NC[C@@H](NC(=O)CC[C@@H](C(=O)O)N2CCN(CC(=O)O)CCN(CC(=O)O)CCN(CC(=O)O)CC2)C(=O)N[C@H](CCCCNC(=O)CCC(=O)NCCC[C@@H](NC(=O)CC[C@H](NC(=O)N[C@@H](CCC(=O)O)C(=O)O)C(=O)O)C(=O)O)C(=O)O)cc1)C(C)(C)C [rhPSMA-7.3, reference compound]	0.05

API: the following record is the query input.
biodistribution: stomach measured on O=C(O)CC[C@H](NC(=O)N[C@@H](CCCCNC(=O)CCCCCCC(=O)NCCCC[C@@H](NC(=O)[C@@H](Cc1ccccc1)NC(=O)[C@@H](Cc1ccc(O)c(I)c1)NC(=O)CCC(C(=O)O)N1CCN(CC(=O)O)CCN(CC(=O)O)CCN(CC(=O)O)CC1)C(=O)O)C(=O)O)C(=O)O (stereo partly drawn) [PSMA I&T, reference compound] = 0.05

----------
Measured Log PO/W, listed per entry for reference.
assay: Octanol-water partition coefficient; assay type: physicochemical; details: 177Lu-labelled; n-octanol/PBS pH 7.4; n=6
In your answer, state the number alone without any accompanying words.

Reference set, count: 3
Compound	Log PO/W
CC(C)(C)[Si](O)(c1ccc(C(=O)NC[C@@H](NC(=O)CC[C@@H](C(=O)O)N2CCN(CC(=O)O)CCN(CC(=O)O)CCN(CC(=O)O)CC2)C(=O)NCC(=O)N[C@@H](CCCCNC(=O)CCC(=O)NCCC[C@@H](NC(=O)CC[C@H](NC(=O)N[C@@H](CCC(=O)O)C(=O)O)C(=O)O)C(=O)O)C(=O)O)cc1)C(C)(C)C	−4.14
O=C(O)CC[C@H](NC(=O)N[C@@H](CCCCNC(=O)[C@H](Cc1ccc2ccccc2c1)NC(=O)[C@H]1CC[C@H](CNC(=O)CN2CCN(CC(=O)O)CCN(CC(=O)O)CCN(CC(=O)O)CC2)CC1)C(=O)O)C(=O)O [PSMA-617, reference compound]	−4.1
CC(C)(C)[Si](F)(c1ccc(C(=O)NC[C@@H](NC(=O)CC[C@@H](C(=O)O)N2CCN(CC(=O)O)CCN(CC(=O)O)CCN(CC(=O)O)CC2)C(=O)N[C@H](CCCCNC(=O)CCC(=O)NCCC[C@@H](NC(=O)CC[C@H](NC(=O)N[C@@H](CCC(=O)O)C(=O)O)C(=O)O)C(=O)O)C(=O)O)cc1)C(C)(C)C [rhPSMA-7.3, reference compound]	−3.8

Reported Log PO/W of CC(C)(C)[Si](O)(c1ccc(C[N+](C)(C)CC(=O)NCCC[C@@H](NC(=O)CC[C@@H](C(=O)O)N2CCN(CC(=O)O)CCN(CC(=O)O)CCN(CC(=O)O)CC2)C(=O)NCCCCCC(=O)NCCC[C@@H](NC(=O)CC[C@H](NC(=O)N[C@@H](CCC(=O)O)C(=O)O)C(=O)O)C(=O)O)cc1)C(C)(C)C : −4.11

Summary for this compound, CC(C)(C)[Si](O)(c1ccc(C(=O)NC[C@@H](NC(=O)CCCCCNC(=O)CCCNC(=O)CC[C@@H](NC(=O)CCC(NC(=O)N[C@@H](CCC(=O)O)C(=O)O)C(=O)O)C(=O)O)C(=O)NCC(=O)N[C@@H](CCCCNC(=O)CC[C@@H](C(=O)O)N2CCN(CC(=O)O)CCN(CC(=O)O)CCN(CC(=O)O)CC2)C(=O)O)cc1)C(C)(C)C (some centres unmarked) : Log PO/W is −3.77

The compound identified as CC(C)(C)[Si](F)(c1ccc(C(=O)NC[C@@H](NC(=O)CN2CCN(CC(=O)O)CCN(CC(=O)O)CCN(CC(=O)O)CC2)C(=O)N[C@H](CCCCNC(=O)CCC(=O)NCCC[C@@H](NC(=O)CC[C@H](NC(=O)N[C@@H](CCC(=O)O)C(=O)O)C(=O)O)C(=O)O)C(=O)O)cc1)C(C)(C)C [rhPSMA-10, reference compound] registered its Log PO/W at −3.6

# Log PO/W (compound: CC(C)(C)[Si](O)(c1ccc(C(=O)N[C@H](CCC(=O)NC[C@@H](NC(=O)CC[C@@H](C(=O)O)N2CCN(CC(=O)O)CCN(CC(=O)O)CCN(CC(=O)O)CC2)C(=O)NCCCCCC(=O)NCCC[C@@H](NC(=O)CC[C@H](NC(=O)N[C@@H](CCC(=O)O)C(=O)O)C(=O)O)C(=O)O)C(=O)O)cc1)C(C)(C)C ) is −3.94

Lab note: CC(C)(C)[Si](O)(c1ccc(C(=O)NC[C@@H](NC(=O)CC[C@@H](C(=O)O)N2CCN(CC(=O)O)CCN(CC(=O)O)CCN(CC(=O)O)CC2)C(=O)N[C@H](CCCCNC(=O)CCC(=O)NCCC[C@@H](NC(=O)CC[C@H](NC(=O)N[C@@H](CCC(=O)O)C(=O)O)C(=O)O)C(=O)O)C(=O)O)cc1)C(C)(C)C gave Log PO/W of −3.9
